Protein target, amino acids: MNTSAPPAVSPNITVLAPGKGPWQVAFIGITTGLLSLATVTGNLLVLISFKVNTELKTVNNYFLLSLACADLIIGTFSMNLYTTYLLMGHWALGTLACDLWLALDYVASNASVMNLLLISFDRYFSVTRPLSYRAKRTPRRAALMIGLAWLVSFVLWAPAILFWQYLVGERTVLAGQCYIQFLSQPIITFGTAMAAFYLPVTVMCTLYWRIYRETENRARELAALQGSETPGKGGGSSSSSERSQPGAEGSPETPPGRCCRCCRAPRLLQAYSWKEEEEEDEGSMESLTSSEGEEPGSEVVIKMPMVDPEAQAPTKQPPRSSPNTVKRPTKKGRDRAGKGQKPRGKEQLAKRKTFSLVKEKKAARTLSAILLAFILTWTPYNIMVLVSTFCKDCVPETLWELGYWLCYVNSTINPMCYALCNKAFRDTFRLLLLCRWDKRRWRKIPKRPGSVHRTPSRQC
pKi: −log10 of the molar value.
OUTCOME MEASURE: pKi

May I ask what pKi has been recorded for "O=S(=O)(NCCCCN1CCC(c2noc3cc(F)ccc23)CC1)c1cc2ccccc2s1" ?
< 6.00
